Consider the following compounds and their measured microsomal CLint at 1 µM readings.
- measurement.protocol: Intrinsic clearance in human liver microsomes assessed per mg of protein at 1 uM by LC/MS/MS analysis
- Format: ADME, Microsome

compound: CCCS(=O)(=O)c1cccc(C#Cc2cc(Cl)ccc2OCC(=O)O)c1
unit.info: µL/min/mg
censor.symbol: =
microsomal CLint at 1 µM: 11
--
compound: COCCN(C)S(=O)(=O)c1ccc(C)c(C#Cc2cc(Cl)ccc2OCC(=O)O)c1
unit.info: µL/min/mg
censor.symbol: =
microsomal CLint at 1 µM: 32
--
compound: O=C(O)COc1ccc(Cl)cc1C#Cc1ccc(CO)cc1F
unit.info: µL/min/mg
censor.symbol: <
microsomal CLint at 1 µM: 10
--
compound: Cc1ccc(S(=O)(=O)N(C)CC(C)C)cc1C#Cc1cc(Cl)ccc1OCC(=O)O
unit.info: µL/min/mg
censor.symbol: =
microsomal CLint at 1 µM: 79
--
compound: COCCNS(=O)(=O)c1ccc(C)c(C#Cc2cc(Cl)ccc2OCC(=O)O)c1
unit.info: µL/min/mg
censor.symbol: <
microsomal CLint at 1 µM: 10
--
compound: CCCS(=O)(=O)c1ccc(F)c(C#Cc2cc(Cl)ccc2OCC(=O)O)c1
unit.info: µL/min/mg
censor.symbol: =
microsomal CLint at 1 µM: 12
--
compound: Cc1ccc(S(=O)(=O)N(C)C(C)C)cc1C#Cc1cc(Cl)ccc1OCC(=O)O
unit.info: µL/min/mg
censor.symbol: <
microsomal CLint at 1 µM: 10
--
compound: Cc1ccc(S(=O)(=O)N2CCCCC2C)cc1C#Cc1cc(Cl)ccc1OCC(=O)O (stereo not given)
unit.info: µL/min/mg
censor.symbol: =
microsomal CLint at 1 µM: 89
--
compound: CN(C)S(=O)(=O)c1ccc(F)c(C#Cc2cc(Cl)ccc2OCC(=O)O)c1
unit.info: µL/min/mg
censor.symbol: <
microsomal CLint at 1 µM: 10
--
compound: CCCS(=O)(=O)c1ccc(C)c(C#Cc2cc(Cl)ccc2OCC(=O)O)c1
unit.info: µL/min/mg
censor.symbol: <
microsomal CLint at 1 µM: 10
